The origin of these recorded values is the supplement of paper PMC5412046.

Kindly state area under the dose-response curve for each of the entries shown.
# Tested on: SB.msgc-1
# Test Details: area under the dose-response curve of % viability (trapezoidal, 11 doses) (% viability x log10 concentration); higher = less cytotoxic
# Condition Notes: SB.msgc-1 (sporadic gastric cancer)
Answers are plain numbers.

Illustrative cases are given below, each with its answer.
- Molecule: "COC1=CC(c2cc3ccccc3[nH]2)=N/C1=C/c1[nH]c(C)cc1C [Obatoclax] (top concentration 46.0829 µM)"
  Value Kind: "area under the dose-response curve"
  Reading: 397
- Molecule: "O=C(O)c1cccnc1 [Niacin] (top concentration 46.0829 µM)"
  Value Kind: "area under the dose-response curve"
  Reading: 487
- Molecule: "Cc1ccc(C(=O)Nc2cccc(C(F)(F)F)c2)cc1Nc1nc(-c2cccnc2)nc2c1cnn2C [NVP-BHG712] (top concentration 46.0829 µM)"
  Value Kind: "area under the dose-response curve"
  Reading: 463

Would you mind listing area under the dose-response curve for each of the following molecules?
1. COc1c(O)cc2c(c1O)[C@@H]1O[C@H](CO)[C@@H](O)[C@H](O)[C@H]1OC2=O [Bergenin] (top concentration 46.0829 µM)
2. CC(C)(C)c1cc(C=C(C#N)C#N)cc(Br)c1O [AG-1024] (top concentration 46.0829 µM)
3. COc1cc[nH]c2ncc(C(=O)C(=O)N3CCN(C(=O)c4ccccc4)C[C@H]3C)c1-2 (top concentration 46.0829 µM)
4. O=C1N\2CCC3=C([NH]C4=C3C=CC=C4)C2=N/C5=CC=CC=C15 [Rutaecarpine] (top concentration 46.0829 µM)
5. FC(F)c1nc2ccccc2n1-c1nc(N2CCOCC2)nc(N2CCOCC2)n1 [ZSTK-474] (top concentration 46.0829 µM)

[567, 422, 589, 474, 369]

Answer for every listed entry: what is its area under the dose-response curve? The entries follow.
1. CCCCCCCCCCCCCCCC(=O)O[C@@H]1[C@@H](O)[C@@H](O)[C@@H]([C@H](NC(=O)[C@@H]2C[C@@H](CCC)CN2C)[C@H](C)Cl)O[C@@H]1SC.Cl [Clindamycin palmitate] (top concentration 46.0829 µM)
2. CC\12CCC(=O)\C=C1CCC3C2CCC4(C)C3CCC4(O)C#C (centres undefined) [Ethisterone] (top concentration 46.0829 µM)

1. 583
2. 499

----------
# System: SB.mhdgc-1
# Test Details: area under the dose-response curve of % viability (trapezoidal, 11 doses) (% viability x log10 concentration); higher = less cytotoxic
# Condition Notes: SB.mhdgc-1 (hereditary c.1380delA CDH1 gastric cancer)
Value Kind: area under the dose-response curve
Give bare numbers.

// known answers, use as guide
- Compound: "C[C@]1(O)CC(C1)C2=NC(=C3[N]2C=CN=C3N)C4=CC5=C(C=C4)C=CC(=N5)C6=CC=CC=C6 (stereo not given) [Linsitinib] (top concentration 46.0829 µM)"
  area under the dose-response curve: 475
- Compound: "C[C@H]1[C@@H](C(=O)C[C@H]2O[C@@H]3O[C@]4(C)CC[C@H]5[C@H](C)CC[C@@H]([C@H]2C)[C@@]35OO4)O[C@@H]2O[C@]3(C)CC[C@H]4[C@H](C)CC[C@@H]1[C@@]24OO3 [BTM-2C-dimer ketone] (top concentration 46.0829 µM)"
  area under the dose-response curve: 455
- Compound: "CC[C@H](CC#N)OC(=O)N[C@@H](C)c1cccc(NC(=O)Nc2ccc(-c3cnco3)c(OC)c2)c1 [AVN-944] (top concentration 46.0829 µM)"
  area under the dose-response curve: 543

// for each compound below, give its area under the dose-response curve
1. O=C(Nc1cccc(C(F)(F)F)c1)Nc1cc([S+](=O)([O-])NC2CC2)ccc1-c1ccsc1 [AGI-6780] (top concentration 46.0829 µM)
2. Cc1ccc(NC(=O)c2ccc(CN3CCN(C)CC3)cc2)cc1Nc1nc(-c2cccnc2)cs1 [Masitinib] (top concentration 46.0829 µM)
3. CC(C)c1onc(-c2c(Cl)cccc2Cl)c1COc1ccc(/C=C/c2cccc(C(=O)O)c2)c(Cl)c1 [GW-4064X] (top concentration 46.0829 µM)
4. COc1cc2c(Nc3ccc(Br)cc3F)ncnc2cc1OCC1CCN(C)CC1 [Vandetanib] (top concentration 46.0829 µM)

1. 560
2. 518
3. 501
4. 410

Quick one: give me area under the dose-response curve for each item below, same order please.
1. C[C@@H]1CC[C@@]2(CC[C@]3(C)\C(=C/C[C@@H]4[C@@]5(C)C[C@@H](O)[C@H](O)[C@@](C)(CO)[C@@H]5CC[C@@]34C)[C@@H]2[C@H]1C)C(O)=O [Asiatic acid] (top concentration 46.0829 µM)
2. CC(C)(O)[C@H]1CC[C@@](C)([C@H]2[C@@H](O)C[C@@]3(C)[C@@H]4C[C@H](O[C@@H]5O[C@H](CO)[C@@H](O)[C@H](O)[C@H]5O)[C@H]5C(C)(C)[C@@H](O[C@@H]6OC[C@@H](O)[C@H](O)[C@H]6O)CC[C@@]56C[C@@]46CC[C@]23C)O1 [Astragaloside A] (top concentration 46.0829 µM)
3. OC1=CC(=C(C=C1)\C2=C(O)\C(=O)C3=C(O2)C=C(O)C=C3O)O [Morin hydrate] (top concentration 46.0829 µM)

559
558
530

----------
# Test system: SB.mhdgc-1
# Test Details: area under the dose-response curve of % viability (trapezoidal, 11 doses) (% viability x log10 concentration); higher = less cytotoxic
# Condition Notes: SB.mhdgc-1 (hereditary c.1380delA CDH1 gastric cancer)
Value Kind: area under the dose-response curve
Numbers only.

Examples with their reported area under the dose-response curve follow.
- Compound: "COc1cc2ncnc(Nc3ccc(F)c(Cl)c3)c2cc1OCCCN1CCOCC1 [Gefitinib] (top concentration 92.1659 µM)"
  Reading: 278
- Compound: "CC(C(=O)O)c1ccc(-c2ccccc2)c(F)c1 (stereo not drawn) [Flurbiprofen] (top concentration 46.0829 µM)"
  Reading: 438

From here, focus on the item given below.
Item Cc1ccc([S+](=O)([O-])Nc2nc3ccccc3nc2Nc2ccc3nsnc3c2)cc1 [XL-147] (top concentration 23.0415 µM) : provide area under the dose-response curve 397

----------
# Tested on: SB.mhdgc-1
# Test Details: AC50 for growth inhibition (viability) (log10 M); higher = less potent
# Condition Notes: SB.mhdgc-1 (hereditary c.1380delA CDH1 gastric cancer)
Structures can show the parent of a compound that is named as a salt.
Assign AC50 for growth inhibition (log10 M) to each entry below.
One number for each entry.

Please review the following examples before continuing.
- Compound: "C#Cc1cccc(Nc2ncnc3cc(OCCOC)c(OCCO)cc23)c1 [OSI-420]"
  AC50 for growth inhibition (log10 M): -6.23
- Compound: "N#C/C(=C(/N)Sc1ccc(N)cc1)c1ccccc1C(F)(F)F [SL-327]"
  AC50 for growth inhibition (log10 M): -5.28
- Compound: "COc1ccccc1[C@H](c1cccc2ccccc12)[C@@](C)(C#N)C(=O)N1CCC(c2cccc(C(F)(F)F)c2)CC1"
  AC50 for growth inhibition (log10 M): -5.18
- Compound: "CN[C@@H]1[C@H](O)[C@H](NC)[C@H]2O[C@@]3(O)C(=O)C[C@@H](C)O[C@H]3O[C@@H]2[C@H]1O [Spectinomycin hydrochloride]"
  AC50 for growth inhibition (log10 M): -5.93

For every item below, please supply its AC50 for growth inhibition (log10 M).
1. CN(C)Cc1cccc(N/C(=C2\C(=O)Nc3cc(C(=O)N(C)C)ccc32)c2ccccc2)c1
2. FC(F)(F)c1ccc(/C=C/c2nc(COc3ccc(CCCCn4ccnn4)cc3)co2)cc1 [Mubritinib]
3. c1cc(-c2cnn3cc(-c4ccc(OCCN5CCCCC5)cc4)cnc23)ccn1 [Dorsomorphin]
4. CN1CCN(CCCN2c3ccccc3Sc3ccc(Cl)cc32)CC1.O=C(O)/C=C\C(=O)O.O=C(O)/C=C\C(=O)O [Prochlorperazine]

1. -5.48
2. -6.78
3. -4.83
4. -4.73

----------
Would you kindly list area under the dose-response curve for each of these molecules?
# Test system: SB.mhdgc-1
# Test Details: area under the dose-response curve of % viability (trapezoidal, 11 doses) (% viability x log10 concentration); higher = less cytotoxic
# Condition Notes: SB.mhdgc-1 (hereditary c.1380delA CDH1 gastric cancer)
Answers are plain numbers.

- Molecule: "CC(C)C(=O)Nc1ncc(-c2cc(C(F)F)nn2-c2c(Cl)cccc2Cl)s1 [BMS-5] (top concentration 46.0829 µM)"
  Value Kind: "area under the dose-response curve"
  Reading: 459
- Molecule: "ClC1=CC=C(C=C1)C(C#N)C2=C(Cl)C=C(C=C2Cl)N3\\N=C/C(=O)NC3=O (stereo not drawn) [Diclazuril] (top concentration 46.0829 µM)"
  Value Kind: "area under the dose-response curve"
  Reading: 538

Field: next molecule
Answer with area under the dose-response curve of Cc1c(-c2cccc3c(CCCOc4cccc5ccccc45)c(C(=O)O)n(Cc4cccnc4)c23)c(COc2ccc(N3CCN([S+](=O)([O-])N(C)C)CC3)cc2)nn1C (top concentration 46.0829 µM) measured for SB.mhdgc-1. 473
